biological target: EphA2 endogenously expressed on PC3 prostate cancer cells (UniProt P29317 24-976, limits assumed); experiment: cell-based or functional assay
Sequence (P29317 24-976 limits assumed): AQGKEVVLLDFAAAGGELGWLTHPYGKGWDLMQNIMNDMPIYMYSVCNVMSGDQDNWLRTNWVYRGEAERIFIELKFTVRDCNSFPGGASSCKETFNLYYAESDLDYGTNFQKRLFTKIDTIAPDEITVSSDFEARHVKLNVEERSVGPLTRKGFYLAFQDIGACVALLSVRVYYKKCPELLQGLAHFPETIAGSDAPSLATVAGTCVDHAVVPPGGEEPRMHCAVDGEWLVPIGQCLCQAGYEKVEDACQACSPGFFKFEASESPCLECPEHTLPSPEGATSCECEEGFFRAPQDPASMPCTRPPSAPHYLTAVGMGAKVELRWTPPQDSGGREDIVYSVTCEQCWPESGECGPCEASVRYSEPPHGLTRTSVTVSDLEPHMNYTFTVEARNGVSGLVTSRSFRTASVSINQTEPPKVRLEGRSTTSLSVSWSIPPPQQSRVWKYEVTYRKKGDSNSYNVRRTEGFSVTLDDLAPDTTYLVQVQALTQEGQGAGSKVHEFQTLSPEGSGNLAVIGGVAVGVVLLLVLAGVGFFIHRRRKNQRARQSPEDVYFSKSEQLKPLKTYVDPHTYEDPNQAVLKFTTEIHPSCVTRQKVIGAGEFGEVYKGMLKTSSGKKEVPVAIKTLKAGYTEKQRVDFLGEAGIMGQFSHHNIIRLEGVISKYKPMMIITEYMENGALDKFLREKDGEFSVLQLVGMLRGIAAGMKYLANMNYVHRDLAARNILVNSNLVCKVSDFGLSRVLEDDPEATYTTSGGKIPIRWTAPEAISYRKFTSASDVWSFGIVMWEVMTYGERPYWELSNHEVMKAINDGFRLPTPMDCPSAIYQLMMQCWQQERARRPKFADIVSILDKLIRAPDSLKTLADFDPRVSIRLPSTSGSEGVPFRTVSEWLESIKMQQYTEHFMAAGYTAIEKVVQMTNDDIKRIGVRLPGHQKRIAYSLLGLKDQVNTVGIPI
Where no end group is shown, it is not given here. [ ]: non-standard residue; d: D form. βAla = NCCC(=O)O
Would you mind telling me the reported EC50 PY588 of each entry?
Supply the numeric figure in nM, leaving out any unit text.

Request: Report EC50 PY588 for [βAla]WLAYPDSVPYRPKC (also: homodimer, disulfide at 15, other end not in the chain, C-terminally disulfide-linked homodimer made from monomer (19*); also called dimer (2); dimeric peptide (2)) [βA-WLA-YRPKC dimer (C-ter)] please.
Result: 2.6

Request: Report EC50 PY588 for CGAWLAYPDSVPYRPK (also: N-terminally disulfide-linked homodimer, disulfide at 1, other end not in the chain, also called dimer (5); dimeric peptide (5)) [CGA-WLA-YRPK dimer (N-ter)] please.
Result: 0.53

Request: Report EC50 PY588 for Lys-linked dimer (C-ter) (also: bond at chain A 15 to a chain's C-terminus) peptide 1: [βAla]WLAYPDSVPYRPKK peptide 2: [βAla]WLAYPDSVPYRPK please.
Result: 2.4

Request: Report EC50 PY588 for Click dimer (N-ter) (not fully specified; propargylglycine (Pra) at position 1, joined by a click linkage to KN3 of the other chain; C-terminal amide; azido-lysine (KN3) at position 1, joined by a click linkage to Pra of the other chain; C-terminal amide) peptide 1: KAWLAYPDSVPYRPK peptide 2: XGAWLAYPDSVPYRPK please.
Result: 0.22

Request: Report EC50 PY588 for CGAWLAYPDSVPYRPK-NH2 (also: homodimer: N-terminal Cys of two chains joined by disulfide) [CGA-WLA-YRPKam dimer (N-ter)] please.
Result: 0.12
